ASSAYED_SYSTEM: P38-a (Homo sapiens, UniProt Q16539)
Sequence (Q16539 whole entry): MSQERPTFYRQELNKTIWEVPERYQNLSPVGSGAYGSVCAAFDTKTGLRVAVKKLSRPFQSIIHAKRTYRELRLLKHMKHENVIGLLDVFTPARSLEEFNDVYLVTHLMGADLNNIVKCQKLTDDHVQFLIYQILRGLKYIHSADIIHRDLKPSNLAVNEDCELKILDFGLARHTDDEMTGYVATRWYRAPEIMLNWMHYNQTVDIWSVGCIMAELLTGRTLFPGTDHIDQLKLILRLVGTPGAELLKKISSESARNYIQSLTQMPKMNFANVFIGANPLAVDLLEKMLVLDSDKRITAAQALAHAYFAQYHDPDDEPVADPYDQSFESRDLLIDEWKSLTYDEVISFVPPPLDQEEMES
ASSAY_INFO: Kinase panel (mobility shift)
Assay type: biochemical
TEST_SETTINGS: at 5 um

{"MOLECULE": "CNC(=O)c1cc(Oc2ccc(NC(=O)c3nc(NC)sc3-c3ccc(F)cc3C)cc2F)ccn1 [Compound 23]", "ASSAYED_SYSTEM": "P38-a (Homo sapiens, UniProt Q16539)", "inhibition of kinase activity, P38-a": "D (category D for 50-79)"}
{"MOLECULE": "CSc1nc(C(=O)Nc2ccc(Oc3cc4cnn(C)c4cc3Br)c(F)c2)c(-c2ccc(F)cc2)o1 [Compound 2]", "ASSAYED_SYSTEM": "P38-a (Homo sapiens, UniProt Q16539)", "inhibition of kinase activity, P38-a": "D (category D for 50-79)"}
{"MOLECULE": "COc1nc(C(=O)Nc2ccc(Oc3ccnc(C(=O)NC4COC4)c3)c(F)c2)c(-c2ccc(F)cc2)o1 [Compound 39]", "ASSAYED_SYSTEM": "P38-a (Homo sapiens, UniProt Q16539)", "inhibition of kinase activity, P38-a": "D (category D for 50-79)"}
{"MOLECULE": "CSc1nc(C(=O)Nc2ccc(Oc3ccnc(C(=O)NC4COC4)c3)c(F)c2)c(-c2ccc(F)cc2)o1 [Compound 31]", "ASSAYED_SYSTEM": "P38-a (Homo sapiens, UniProt Q16539)", "inhibition of kinase activity, P38-a": "C (C=80%-89% at 5 um)"}
{"MOLECULE": "CNC(=O)c1cc(Oc2ccc(NC(=O)c3nc(SC)oc3-c3ccc(F)c(F)c3)cc2)ccn1 [Compound 4]", "ASSAYED_SYSTEM": "P38-a (Homo sapiens, UniProt Q16539)", "inhibition of kinase activity, P38-a": "C (C=80%-89% at 5 um)"}
{"MOLECULE": "CSc1nc(C(=O)Nc2ccc(Oc3ccnc(C(=O)NC4CNC4)c3)c(F)c2)c(-c2ccc(F)s2)o1 [Compound 27]", "ASSAYED_SYSTEM": "P38-a (Homo sapiens, UniProt Q16539)", "inhibition of kinase activity, P38-a": "D (category D for 50-79)"}
{"MOLECULE": "CSc1nc(C(=O)Nc2ccc(Oc3ccnc(C(=O)NC4COC4)c3)c(F)c2)c(-c2ccc(F)c(F)c2)o1 [Compound 37]", "ASSAYED_SYSTEM": "P38-a (Homo sapiens, UniProt Q16539)", "inhibition of kinase activity, P38-a": "C (C=80%-89% at 5 um)"}
{"MOLECULE": "CNC(=O)c1cc(Oc2ccc(NC(=O)c3nc(OCC(F)(F)F)oc3-c3ccc(F)cc3)cc2F)ccn1 [Compound 38]", "ASSAYED_SYSTEM": "P38-a (Homo sapiens, UniProt Q16539)", "inhibition of kinase activity, P38-a": "D (category D for 50-79)"}
{"MOLECULE": "CNC(=O)c1cc(Oc2ccc(NC(=O)c3nc(OC)oc3-c3ccc(F)cc3)cc2F)ccn1 [Compound 15]", "ASSAYED_SYSTEM": "P38-a (Homo sapiens, UniProt Q16539)", "inhibition of kinase activity, P38-a": "D (category D for 50-79)"}
{"MOLECULE": "CSc1nc(C(=O)Nc2ccc(Oc3ccnc(N)c3Cl)c(F)c2)c(-c2ccc(F)cc2)o1 [Compound 1]", "ASSAYED_SYSTEM": "P38-a (Homo sapiens, UniProt Q16539)", "inhibition of kinase activity, P38-a": "D (category D for 50-79)"}
{"MOLECULE": "CSc1nc(C(=O)Nc2ccc(Oc3ccnc(C(=O)NCC(F)(F)F)c3)c(F)c2)c(-c2ccc(F)cc2)o1 [Compound 40]", "ASSAYED_SYSTEM": "P38-a (Homo sapiens, UniProt Q16539)", "inhibition of kinase activity, P38-a": "D (category D for 50-79)"}

----------
ASSAYED_SYSTEM: TRKA (Homo sapiens, UniProt P04629)
Sequence (P04629 33-796, species assumed): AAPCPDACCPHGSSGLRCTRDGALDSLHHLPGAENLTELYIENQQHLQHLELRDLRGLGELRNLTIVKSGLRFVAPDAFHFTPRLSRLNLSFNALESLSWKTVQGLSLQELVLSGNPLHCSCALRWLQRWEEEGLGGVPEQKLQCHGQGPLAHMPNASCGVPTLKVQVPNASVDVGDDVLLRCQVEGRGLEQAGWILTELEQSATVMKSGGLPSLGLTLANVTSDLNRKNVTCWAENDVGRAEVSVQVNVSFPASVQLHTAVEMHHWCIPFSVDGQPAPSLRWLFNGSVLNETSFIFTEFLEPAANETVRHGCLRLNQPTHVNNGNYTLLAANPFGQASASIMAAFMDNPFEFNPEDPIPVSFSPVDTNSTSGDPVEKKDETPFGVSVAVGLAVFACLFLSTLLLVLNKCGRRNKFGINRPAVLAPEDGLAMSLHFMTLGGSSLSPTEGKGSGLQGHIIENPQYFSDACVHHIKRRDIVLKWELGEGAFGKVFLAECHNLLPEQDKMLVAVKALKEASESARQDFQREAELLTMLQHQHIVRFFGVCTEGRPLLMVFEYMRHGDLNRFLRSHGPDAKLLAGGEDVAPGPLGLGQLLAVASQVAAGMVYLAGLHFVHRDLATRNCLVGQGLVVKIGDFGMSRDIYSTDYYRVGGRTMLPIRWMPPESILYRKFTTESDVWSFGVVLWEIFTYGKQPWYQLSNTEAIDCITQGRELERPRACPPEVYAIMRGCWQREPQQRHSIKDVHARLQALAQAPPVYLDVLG
ASSAY_INFO: Kinase panel (mobility shift)
Assay type: biochemical
Some compounds, each annotated with its measured inhibition at 5 µM.
TEST_READOUT: inhibition at 5 µM

{"COMPOUND_STRUCTURE_STRING": "CNC(=O)c1cc(Oc2ccc(NC(=O)c3nc(OC)oc3-c3ccc(F)s3)cc2F)ccn1", "TEST_READOUT": "inhibition at 5 µM", "TEST_VALUE": "< 50%"}
{"COMPOUND_STRUCTURE_STRING": "[2H]C([2H])([2H])NC(=O)c1cc(Oc2ccc(NC(=O)c3nc(SC)oc3-c3ccc(F)c(F)c3)cc2F)ccn1", "TEST_READOUT": "inhibition at 5 µM", "TEST_VALUE": "50 to 79%"}
{"COMPOUND_STRUCTURE_STRING": "CNC(=O)c1cc(Oc2ccc(NC(=O)c3nc(SC(C)C)oc3-c3ccc(F)cc3)cc2F)ccn1", "TEST_READOUT": "inhibition at 5 µM", "TEST_VALUE": "80 to 89%"}
{"COMPOUND_STRUCTURE_STRING": "CNC(=O)c1cc(Oc2ccc(NC(=O)c3nc(SC)oc3-c3ccc(F)c(F)c3)cc2)ccn1", "TEST_READOUT": "inhibition at 5 µM", "TEST_VALUE": "50 to 79%"}
{"COMPOUND_STRUCTURE_STRING": "CNC(=O)c1cc(Oc2ccc(NC(=O)c3nc(COC)oc3-c3ccc(F)cc3)cc2F)ccn1", "TEST_READOUT": "inhibition at 5 µM", "TEST_VALUE": "90 to 94%"}
{"COMPOUND_STRUCTURE_STRING": "CSc1nc(C(=O)Nc2ccc(Oc3ccnc(C(=O)NC4CCN(C)CC4)c3)c(F)c2)c(-c2ccc(F)cc2)o1", "TEST_READOUT": "inhibition at 5 µM", "TEST_VALUE": "< 50%"}
{"COMPOUND_STRUCTURE_STRING": "CNC(=O)c1cc(Oc2ccc(NC(=O)c3nc(SC)oc3-c3ccc(F)cc3Cl)cc2)ccn1", "TEST_READOUT": "inhibition at 5 µM", "TEST_VALUE": "80 to 89%"}
{"COMPOUND_STRUCTURE_STRING": "CNC(=O)c1cc(Oc2ccc(NC(=O)c3nc(SC)oc3-c3ccc(F)cc3F)cc2F)ccn1", "TEST_READOUT": "inhibition at 5 µM", "TEST_VALUE": "80 to 89%"}
{"COMPOUND_STRUCTURE_STRING": "COc1nc(C(=O)Nc2ccc(Oc3ccnc(C(=O)NC4COC4)c3)c(F)c2)c(-c2ccc(F)cc2)o1", "TEST_READOUT": "inhibition at 5 µM", "TEST_VALUE": "< 50%"}
{"COMPOUND_STRUCTURE_STRING": "CSc1nc(C(=O)Nc2ccc(Oc3ccnc(N)c3Cl)c(F)c2)c(-c2ccc(F)cc2)o1", "TEST_READOUT": "inhibition at 5 µM", "TEST_VALUE": "< 50%"}
{"COMPOUND_STRUCTURE_STRING": "CSc1nc(C(=O)Nc2ccc(Oc3ccnc(-c4cnn(C)c4)c3)c(F)c2)c(-c2ccc(F)cc2)o1", "TEST_READOUT": "inhibition at 5 µM", "TEST_VALUE": "50 to 79%"}
{"COMPOUND_STRUCTURE_STRING": "CNC(=O)c1cc(Oc2ccc(NC(=O)c3nc(SC)oc3-c3ccc(F)cc3F)cc2)ccn1", "TEST_READOUT": "inhibition at 5 µM", "TEST_VALUE": "80 to 89%"}
{"COMPOUND_STRUCTURE_STRING": "COc1nc(C(=O)Nc2ccc(Oc3ccnc(C(=O)NCC(F)(F)F)c3)c(F)c2)c(-c2ccc(F)cc2)o1", "TEST_READOUT": "inhibition at 5 µM", "TEST_VALUE": "< 50%"}
{"COMPOUND_STRUCTURE_STRING": "CNC(=O)c1cc(Oc2ccc(NC(=O)c3nc(C4CC4)oc3-c3ccc(F)cc3)cc2F)ccn1", "TEST_READOUT": "inhibition at 5 µM", "TEST_VALUE": "80 to 89%"}
{"COMPOUND_STRUCTURE_STRING": "CNC(=O)c1cc(Oc2ccc(NC(=O)c3nc(NC)oc3-c3ccc(F)s3)cc2F)ccn1", "TEST_READOUT": "inhibition at 5 µM", "TEST_VALUE": "50 to 79%"}

This collection of values is drawn from patent US11629143B2.
